Recorded values, source the supplement of paper PMC10567573.

Reported protein stability index values are given for each entry in this list.
B1: ANKRD40 (parent)
chain: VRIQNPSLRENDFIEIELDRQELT

Variants of: B1
Protocol description: protein stability index of a GFP-peptide fusion (GPS, HEK-293T) (PSI 1-6); higher = more stable;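 further: lentivirally expressed fusions sorted by FACS into six bins by GFP to DsRed ratio, PSI derived from sequencing read proportions per bin multiplied by bin number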
Measurement parameters: c terminus: a fixed tail appended

Here are 10 variants together with their reported answers.
VRIQNPSLRENDTIEIELDRQELT [F13T]: 3.76
VRIQNPSLRENDFIEMELDRQELT [I16M]: 3.49
VRIQNPSLRENDFIEIALDRQELT [E17A]: 2.47
VRDQNPSLRENDFIEIELDRQELT [I3D]: 4.9
VRIQNPSLRENDFYEIELDRQELT [I14Y]: 3.73
VRIQNPSLRENDFIGIELDRQELT [E15G]: 3.02
VRIQNPSLREVDFIEIELDRQELT [N11V]: 1.97
VRIQNPSLRENDFIEIELDRQELG [T24G]: 2.92
VRIQNPSLQENDFIEIELDRQELT [R9Q]: 2.16
VRIQNPSLRENDFIEIELDREELT [Q21E]: 2.82

Input line: Supply measured protein stability index of VRIQNPSLAENDFIEIELDRQELT [R9A] in your reply.
Output line: 1.92
